# systemTested: CCL24_HUMAN
# assaySummary: -; previously described evasin
reportedMetric: pKd
Scale: negative log10 of molar concentration, which is what pKd denotes.

// pKd lookup, substance = EVASIN4 , result: 9.39

---

# systemTested: CCL26_HUMAN
# assaySummary: -; previously described evasin
reportedMetric: Kd
The answer consists of two parts: a number and, after it, its unit.

// Kd lookup, substance = EVASIN4 , result: 880 pM

---

# systemTested: CCL3L1_HUMAN
# assaySummary: -; previously described evasin
reportedMetric: Kd (pM)
State just the number; it will be interpreted in pM.

// Kd lookup, substance = EVASIN1 , result: 50

---

# systemTested: CCL14_HUMAN
# assaySummary: -; previously described evasin
reportedMetric: pKd
Scale: negative log10 of molar concentration, which is what pKd denotes.

Entry EVASIN4 : pKd on CCL14_HUMAN = 9.85

---

# systemTested: CCL23_HUMAN
# assaySummary: -; previously described evasin
reportedMetric: pKd
Scale: negative log10 of molar concentration, which is what pKd denotes.

// pKd lookup, substance = EVASIN4 , result: 8.35

---

# systemTested: CCL21_HUMAN
# assaySummary: -; previously described evasin
reportedMetric: pKd
Scale: negative log10 of molar concentration, which is what pKd denotes.

Entry EVASIN4 : pKd on CCL21_HUMAN = 11.00

---

# systemTested: CXCL1_HUMAN
# assaySummary: -; previously described evasin
reportedMetric: pKd
Scale: negative log10 of molar concentration, which is what pKd denotes.

// pKd lookup, substance = EVASIN3 , result: 9.07

---

# systemTested: CCL7_HUMAN
# assaySummary: -; previously described evasin
reportedMetric: pKd
Scale: negative log10 of molar concentration, which is what pKd denotes.

// pKd lookup, substance = EVASIN4 , result: 9.15
